The reader will find reported koff values listed item by item below.
- subjectOfTest: T1, SARS-CoV-2 spike trimer S (Wuhan, SmT1) (SARS-CoV-2 Wuhan)
- T1 construct: extracellular domain
- assayNotes: SPR, antigen on chip
measuredMetric: koff (s⁻¹)

[[record]]
binder = "NRCoV2-MRed19 VHH (VHH) VHH: EVQLVESGGGLVQPGGSLRLSCAASTIIFKGQTMGWFRQAPGNERELVATMTTSGSANYADSVKGRFTISRDNEKTVTLQMNSLKPEDTALYYCYMHSVYYGIDYWGKGTQVTVSS"
unitlabel = "s⁻¹"
reading = 0.000799

[[record]]
binder = "NRCoV2-MRed11 VHH (VHH) VHH: EVQLVESGGGLVQAGGSLRLSCAASGFTFSSYAMSWHRQAPGKGLEWVSAINSGGGSTSYADSVKGRFAISRDNAKNTLYLQMNSLKPEDTAVYYCATTISDGSSWSTKSYRGQGTQVTVSS"
unitlabel = "s⁻¹"
reading = 0.000418

[[record]]
binder = "NRCoV2-MRed20 VHH (VHH) VHH: EVQLVESGGGSVQAGGSLRLSCAASGLSFSSYDMGWFRQAPGKEREFVAAIRESGSGTYYADSVKGRFTISRDNAKNTVYLQVSSLKPEDTAVYTCAAKPPFYGSGTYSTPRAYLYWGQGTQVTVSS"
unitlabel = "s⁻¹"
reading = "1.46e-05"

[[record]]
binder = "NRCoV2-MRed22 VHH (VHH) VHH: EVQLVESGGGLVQPGGSLRLSCAASGSVFASNAMGWYRQAPGKQRELVATISSRGSTNYADSVKGRFTISRDNAKNTVYLQMNSLGPEDTAVYYCNAREFTGFDYWGQGTQVTVSS"
unitlabel = "s⁻¹"
reading = 0.000176

[[record]]
binder = "NRCoV2-MRed06 VHH (VHH) VHH: EVQLVESGGGLVQAGGSLRLSCAASGFTLAYYAIGWFRQAPGKEREGVSCISSSDGSAHYADSVKGRFTISRDNAKNTVSLQMNSLKPEDTAVYYCATDSFSSCSDYESGMDFWGKGTQVTVSS"
unitlabel = "s⁻¹"
reading = 0.000887

[[record]]
binder = "NRCoV2-MRed25 VHH (VHH) VHH: EVQLVESGGGLVQAGGSLRLSCAASGHTFSRYGMGWFRQAPGKEREFVAAISWRGDSTYYRDSVNGRFTISRDNAKNTVYLGMNSLKPEDTAVYYCAAEMWGTATIVASRYTYWGQGTQVTVSS"
unitlabel = "s⁻¹"
reading = 0.000115

[[record]]
binder = "NRCoV2-MRed07 VHH (VHH) VHH: EVQLVESGGGLVQPGGSLTLSCAASGSIGPFNTMGWYRQAPGNQREPAAIITRGGVTNYADSVKGRFTISRDNAKNAVYLQMDSLKPDDTAVYYCYANYGWAIPYWGNGTQVTVSS"
unitlabel = "s⁻¹"
reading = 0.000378

[[record]]
binder = "NRCoV2-MRed03 VHH (VHH) VHH: EVQLVESGGGLVQPGGSLRLSCAAIGFTLDYYAIGWFRQAPGKEREGVSCISSSDGSTYYADSVKGRFTISRDNAKNTVYLQMNSLKPEDTAVYYCATDAFATCDSWYAQIAQYDFRGQGTQVTVSS"
unitlabel = "s⁻¹"
reading = "8.14e-05"

[[record]]
binder = "NRCoV2-MRed04 VHH (VHH) VHH: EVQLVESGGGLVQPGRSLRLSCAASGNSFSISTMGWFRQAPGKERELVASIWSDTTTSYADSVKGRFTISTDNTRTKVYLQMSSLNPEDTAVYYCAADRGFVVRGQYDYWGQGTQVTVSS"
unitlabel = "s⁻¹"
reading = 0.0015

[[record]]
binder = "NRCoV2-MRed18 VHH (VHH) VHH: EVQLVESGGGLVQPGGSLRLSCAASTTVFGRNAMGWYRQAPGKERELVATVSDGGTPNYADSVKGRFTISRDNAKNTIYLQMNSLEPEDTAVYYCNYYNYYYGRNFWGQGTQVTVSS"
unitlabel = "s⁻¹"
reading = 0.00153

